experiment: qHTS assay for small molecules that induce genotoxicity in human embryonic kidney cells expressing luciferase-tagged ATAD5 (AID 651632); conditions: HEK293T ATAD5-luciferase induction, 16 h; series mostly up to 83.3 µM; also: nearly all actives have a fitted effect of over 15% in size; as to activation: % is scaled to controls: 0 for no effect and ±100 for the full control effect
Inconclusive results are not listed. Activity calls are given as the source filed them. Calls follow the shape of the dose curve; as a rule, active = well fitted activation curve with a large enough effect in the repeat runs; inconclusive = weak or mixed curves; inactive = no such curve, though single readings can be large or run the other way.
Classes used: true (1) = active, false (0) = inactive

molecule	cat
OC1CCCc2ccccc21 (configuration not stated)	false (0)
CCc1ccc(Br)cc1	false (0)
CCCC(=O)OCCc1ccccc1	false (0)
CCCCCCC1CCCC(=O)O1 (configuration not stated)	false (0)
OCCN1CCN(CCCN2c3ccccc3Sc3ccc(C(F)(F)F)cc32)CC1	false (0)
CC(C)(C)C1CCC(=O)CC1	false (0)
COC(C)=O	false (0)
Cc1cc(-n2nc3ccc(Cl)cc3n2)c(O)c(C(C)(C)C)c1	false (0)
CCCCCC/C=C\CCCCCCCC(=O)O	false (0)
c1ccsc1	false (0)
Nc1ccc(C(=O)O)c(O)c1	false (0)
CC(C)(C)NSc1nc2ccccc2s1	false (0)
CN(C)Cc1ccccc1O	false (0)
COc1ccc(-c2coc3cc(O)ccc3c2=O)cc1	true (1)
OC[C@H]1O[C@H](O[C@H]2O[C@H](CO)[C@@H](O)[C@H](O)[C@H]2O)[C@H](O)[C@@H](O)[C@@H]1O	false (0)
O=[N+]([O-])c1ccc(F)c(Cl)c1	false (0)
Oc1ccccc1O	false (0)

---

experiment: qHTS assay to identify small molecule agonists of the farnesoid-X-receptor (FXR) signaling pathway - cell viability counter screen (AID 743218); settings: FXR-bla HEK293T viability, CellTiter-Glo luminescence, 16 h; series mostly up to 62.6 µM; also: nearly all actives have a fitted effect of over 45% in size
Results filed as inconclusive are left out. Activity calls are given as the source filed them. The call rests on the fitted dose curve; in most records, active means well fitted cell-killing curve with a large enough effect in the repeat runs; inconclusive means weak or mixed curves, or effect the other way; inactive means no such curve, though single readings can be large or run the other way.
Outcome codes: label 1 = active, label 0 = inactive

compound	cat
CC(=O)[C@H]1CC[C@H]2[C@@H]3CCC4=CC(=O)CC[C@]4(C)[C@H]3CC[C@]12C	label 0
NC(=S)NC(N)=S	label 0
COc1ccc(-c2coc3cc(O)ccc3c2=O)cc1	label 0
O=C(O)c1cccc(C(F)(F)F)c1	label 0
C#C[C@]1(O)CC[C@H]2[C@@H]3[C@H](C)CC4=C(CCC(=O)C4)[C@H]3CC[C@@]21C	label 0
Cc1cc(-c2ccc(N=Nc3cc(S(=O)(=O)O)c4ccccc4c3N)c(C)c2)ccc1N=Nc1cc(S(=O)(=O)O)c2ccccc2c1N	label 0
CCN(CC)c1ccc2c(-c3ccc(S(=O)(=O)O)cc3S(=O)(=O)[O-])c3ccc(=[N+](CC)CC)cc-3oc2c1	label 0
OC1CCC(C2CCCCC2)CC1 (stereo unspecified)	label 0
[Cu+]	label 0
Cc1ccc(C)cc1	label 0
OC1CCCc2ccccc21 (stereo unspecified)	label 0
CCn1c2ccccc2c2cc([N+](=O)[O-])ccc21	label 0
CCO[C@@H]1O[C@H](C(COCc2ccccc2)OCc2ccccc2)[C@H](OCc2ccccc2)[C@H]1O (stereo partly specified)	label 1
CC/C=C\CCCCCO	label 0
CCCCCCCCCCCCCC[N+](C)(C)C	label 1
O=C(O)c1cc(-c2ccc(F)cc2F)ccc1O	label 0
C=CCCC(=O)/C=C/C1C(C)=CCCC1(C)C (stereo unspecified)	label 0
Cc1c(C)c([N+](=O)[O-])c(C(C)(C)C)c([N+](=O)[O-])c1C	label 0
CCC(COC(=O)CCS)(COC(=O)CCS)COC(=O)CCS	label 0
Cc1ccc(O)c(N)c1	label 0
FC(F)(F)c1cccc(Cl)c1	label 0
CCCCCCC1CCCC(=O)O1 (stereo unspecified)	label 0
CC(C)(C)C1CCC(=O)CC1	label 0
CC(C)NC[C@@H](O)COc1ccc(CC(N)=O)cc1	label 0
O=S(=O)(O)c1ccc(N=Nc2c(O)ccc3ccccc23)cc1	label 1
COc1cc(S(=O)(=O)O)c(C)cc1N=Nc1c(O)ccc2cc(S(=O)(=O)O)ccc12	label 0
COc1cc(/C=C/c2ccccc2)oc(=O)c1	label 0
CCCCC(CC)CN1CN(CC(CC)CCCC)CC(C)(N)C1 (stereo unspecified)	label 0
CC(C)CCOC(=O)/C=C/c1ccccc1	label 0
CCCCCC/C=C\CCCCCCCC(=O)O	label 0
CCCCOC(=O)CC	label 0
O=C1NC(=O)[C@@H]2CC=CC[C@H]12	label 1
O=C1c2ccccc2C(=O)N1SC1CCCCC1	label 0
Nc1nc(-c2ccccc2)cs1	label 0
COc1cc(C)ccc1O	label 0
OC12N=C(c3ccccc3)SC1Cc1cc(Cl)ccc12 (stereo unspecified)	label 0
CCCCCCCCCCCCCC[N+](C)(C)Cc1ccccc1	label 1
Cc1ccc(O)c(O)c1	label 0
Clc1sc(Cl)c(Cl)c1Cl	label 0
Nc1nc(N)nc(-c2cc(Cl)ccc2Cl)n1	label 0
[Cl][Pt-2]([Cl])([Cl])[Cl]	label 0
Cc1cccc(C)c1NC(=O)c1ccc(N)cc1	label 0
Cc1cc(C)c(/C=C2\C(=O)Nc3ccccc32)[nH]1	label 0
CCCCCCOC(=O)C(C)CC (stereo unspecified)	label 0
CCCC1CCC(=O)CC1	label 0
C#C[C@]1(OC(C)=O)CC[C@H]2[C@@H]3CCC4=C[C@@H](OC(C)=O)CC[C@@H]4[C@H]3CC[C@@]21C	label 0

---

assay: qHTS assay to identify small molecule antagonists of the sonic hedgehog signaling (Shh) pathway - cell viability counter screen (AID 1259367); details: NIH/3T3 Gli1-Luc viability, CellTiter-Fluor, 24 h; series mostly up to 92.4 µM; also: nearly all actives have a fitted effect of over 55% in size
Records with an inconclusive call do not appear. Calls of active or inactive are those of the source. Calls follow the shape of the dose curve; as a rule, active = well fitted cell-killing curve with a large enough effect in the repeat runs; inconclusive = weak or mixed curves, or effect the other way; inactive = no such curve, though single readings can be large or run the other way.
Labels: active, inactive

item smiles	cat
Cc1ccc(N/N=c2\c(=O)cc/c(=N\Nc3ccc(S(=O)(=O)O)cc3)c2=O)c(C)c1	active
CN(C)Cc1ccccc1O	inactive
Cc1cc(-n2nc3ccc(Cl)cc3n2)c(O)c(C(C)(C)C)c1	inactive
OC[C@@H](O)[C@@H](O)CO	inactive
Cc1cc(C(C)(C)C)c(O)c(C)c1Cn1c(=O)n(Cc2c(C)cc(C(C)(C)C)c(O)c2C)c(=O)n(Cc2c(C)cc(C(C)(C)C)c(O)c2C)c1=O	inactive
O=C1c2ccccc2C(=O)N1SC1CCCCC1	inactive

---

assay: qHTS assay to identify small molecule agonists of H2AX - cell viability counter screen (AID 1224847); settings: CHO-K1 viability, CellTiter-Glo luminescence, 3 h; series mostly up to 154 µM; also: nearly all actives have a fitted effect of over 30% in size
Inconclusive results are not listed. Active and inactive are the calls of the source. Calls follow the shape of the full dose curve.
Outcomes: label 1 = active, label 0 = inactive

compound	cat
Cc1cc(-n2nc3ccc(Cl)cc3n2)c(O)c(C(C)(C)C)c1	label 0
Cc1cc(C(C)(C)C)cc(C)c1CC1=NCCN1	label 0
Cc1ccc(C(=O)O)cc1	label 0
CCCC(=O)OCOC(=O)C1=C(C)NC(C)=C(C(=O)OC)C1c1cccc(Cl)c1Cl (stereo unspecified)	label 0
C#CC1(O)CC[C@H]2[C@@H]3CCC4=CCCC[C@@H]4[C@H]3CC[C@@]21C (stereo partly specified)	label 1
O=C(O)c1cc(O)c2ccccc2c1O	label 1
CC(C)(C)c1csc(-c2cc3cc(OCc4ccccc4CC(=O)O)ccc3o2)n1	label 1
CC/C=C\CCCCCO	label 0
O=C(O)CCN(C1(C(=O)NO)CCCC1)S(=O)(=O)c1ccc(Oc2ccc(F)cc2)cc1	label 0
CCOC(=O)NNc1ccc(N(CC)CC(C)O)nn1 (stereo unspecified)	label 0
CCCCCCCC	label 0
CCC(C)(CCC(C)C)C(=O)[O][Sn]([CH3])([CH3])[O]C(=O)C(C)(CC)CCC(C)C (stereo unspecified)	label 0
CCc1cccc(CC)c1NC(=O)CN(CC(=O)O)CC(=O)O	label 0
COc1cc(/C=C/c2ccccc2)oc(=O)c1	label 0
CN(C)C(=O)COC(=O)Cc1ccc(OC(=O)c2ccc(N=C(N)N)cc2)cc1	label 0
Cc1cccc(C(=O)O)c1O	label 0

---

Entries and their activity change, positive = activation
assay: qHTS assay to identify small molecule agonists of the estrogen related receptor (ERR) signaling pathway from Tox21 library (AID 1224849); details: ERR reporter cell line, ONE-Glo luciferase, 18 h; at 92.4 µM (top of the series); also: % is scaled to controls: 0 for no effect and ±100 for the full control effect; nearly all actives have a fitted effect of over 15% in size

compound	activity change, positive = activation [%]
C[Si](Cl)(c1ccccc1)c1ccccc1	-19
CN(C)Cc1cc(C(C)(C)C)c(O)c(C(C)(C)C)c1	-28.5
O=C(/C=C/c1ccccc1)OC/C=C/c1ccccc1	3.92
CCC(=O)C(=O)CC	-15.7
Nc1ccc(NCCO)c([N+](=O)[O-])c1	-17.2
Cc1ccc(C)cc1	0.373
C#CC1(O)CC[C@H]2[C@@H]3CCC4=CCCC[C@@H]4[C@H]3CC[C@@]21C (stereo not given in full)	-45.9
COC(=O)c1ccccc1C	3.57
O=C1CCCCCCCCCCCCCCCO1	-5.05
CNc1ccc([N+](=O)[O-])cc1	0.163
CCN(CC)c1ccc2c(-c3ccc(S(=O)(=O)O)cc3S(=O)(=O)[O-])c3ccc(=[N+](CC)CC)cc-3oc2c1	-38.9
CC(C)OC(=O)C(O)(CC(=O)O)CC(=O)O	4.45
C1CCC(SSC2CCCCC2)CC1	5.57
CCc1ccc(Br)cc1	5.1
OCC(F)(F)F	-0.31
CCCCCCCC	4.82
CC(C)(C)C1CCC(=O)CC1	-0.544
C=CC(C)(CCC=C(C)C)OC=O (stereo not given)	1.64
CC1(C)CCC[C@]2(C)[C@H]3CCO[C@]3(C)CC[C@@H]12	5.7
OC[C@@H](O)[C@@H](O)CO	4.53
Nc1cc(Cl)c(O)c(Cl)c1	-4.45
Cc1cc(C(C)(C)C)c(O)c(C)c1Cn1c(=O)n(Cc2c(C)cc(C(C)(C)C)c(O)c2C)c(=O)n(Cc2c(C)cc(C(C)(C)C)c(O)c2C)c1=O	-29.1
Sc1nc2ccccc2s1	0.0626
CC/C=C\CCCCCO	4.13
S=c1nccc[nH]1	-6.52
O=C(Nc1ccc2c(O)c(N=Nc3ccc(N=Nc4ccc(S(=O)(=O)O)cc4)cc3)c(S(=O)(=O)O)cc2c1)c1ccccc1	-30
[Cl][Pt-2]([Cl])([Cl])[Cl]	-8.8
CCCCCCCCCCCCCCCC[N+](C)(C)CC	-72.7
C=C(C)C(=O)OCCCCCCCCCC	2.01
O=S(=O)(O)c1ccccc1/C=C/c1ccc(-c2ccc(/C=C/c3ccccc3S(=O)(=O)O)cc2)cc1	4.34
Cc1cc(=O)oc2cc(O)cc(O)c12	-20.6
O=[N+]([O-])c1ccc(O)cc1C(F)(F)F	-63.3
COc1cc(/C=C/c2ccccc2)oc(=O)c1	36.4
OC1CCC(C2CCCCC2)CC1 (stereo not given)	-1.53
Clc1sc(Cl)c(Cl)c1Cl	4.94

Data origin, for the record: PubChem BioAssay (Tox21)
